Entry source: PubChem BioAssay (NCI)

Record form. Attribute: growth inhibition. Fill in for each entry.
# test: NCI Yeast Anticancer Drug Screen. Data for the rad52 strain (AID 147);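 also: 0% = growth of vehicle-treated control cultures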
# measurement_conditions: S. cerevisiae rad52 mutant growth inhibition; at 3.7 µM; stronger effect = higher value
This is part of a sample that, as a whole, favours compounds with a hit. Of some 79,000 tested, about 15% had one in any assay.
One number for each entry, in %.

Known results for compounds:
Entry `CCCCCCCN(CCCCCCC)CC(=O)c1ccc2cc(Cl)c3ccccc3c2c1` : reported growth inhibition = ?
19

Can you handle CC1CCC(C2=CSC3CCCCC3N2)CC1 (configuration not stated) next?
21

Can you handle `O=C1c2cccc3cccc(c23)C(=O)N1O` next?
3

Can you handle `O=C(NCCNCCNC(=O)c1cc(-c2ccccc2)nc2ccccc12)c1cc(-c2ccccc2)nc2ccccc12` next?
-3

Can you handle `CCOP(=O)(OCC)/C(C#N)=C/c1cccc(Oc2ccccc2)c1` next?
-14

Can you handle `O=C(O)CNC(c1ccccc1)(c1ccccc1)c1ccccc1` next?
-2

Can you handle `O=C(Cc1ccccc1)NNc1nc(NNC(=O)c2ccncc2)nc(Nc2ccc(Cl)cc2)n1` next?
6

Can you handle Cc1cccc(C)c1NC(=O)C(C#N)C1=C(Cl)C(=O)c2ccccc2C1=O (configuration not stated) next?
46

List reported growth inhibition for each of these compounds:
1. NC(N)=NS(=O)(=O)c1ccc(Nc2c3ccccc3nc3c(C(=O)NC(CO)(CO)CO)cccc23)cc1
2. CCOC(=O)/C(=C\c1ccc(F)cc1)C(C)=O
3. O=C(c1cc(=O)c2ccc(O)cc2o1)c1ccc(Cl)cc1Cl
4. CN(C)CC(CN(C)C)C(=O)/C=C/c1ccc(Cl)cc1Cl
5. O=C1C(/C=C/c2ccc(Cl)cc2)=NNC2N1N=C1NC(=O)C3(NN12)c1ccccc1-c1ccccc13 (configuration not stated)
6. CCO/C=C1\SC(=S)N(c2ccc(OCC)cc2)C1=O

[9, -17, -32, -1, -2, -1]

----------
# test: NCI Yeast Anticancer Drug Screen. Data for the wt2 strain (AID 169);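 also: 0% = growth of vehicle-treated yeast cultures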
# measurement_conditions: S. cerevisiae wt2 strain growth inhibition; at 100.0 µM
The panel holds about 79,000 compounds, 15% with a hit somewhere; the sample as a whole holds those more often. The source made the active and inactive calls. No stated cut-off is given here; in the data, active means growth inhibition above about 70%; inactive means the rest.
Answer with one of the outcomes given here: active, inactive

Use these answered entries as a reference point.
GET /call?item= O=C1C(=C2CCCC2)CCC1CN1CCCCC1 (configuration not stated) returns the recorded outcome of this test.
active

Can you handle CN1C(=O)C(CC(=O)O)NC1=S (configuration not stated) next?
inactive

Can you handle CCN1CCC(O)(c2ccc(Oc3ccc(Cl)cc3)cc2)C(C(=O)c2ccc(Oc3ccc(Cl)cc3)cc2)C1 (configuration not stated) next?
inactive

Can you handle C=CC(C)(C)N1C(=O)C(C(C)=O)=C(O)C1Cc1c[nH]c2ccccc12 (configuration not stated) next?
active

Can you handle `CC(C)=CCC/C(C)=C/CN1C(=O)C=CC1=O` next?
active

Further cases:
GET /call?item= `Cc1c(Cl)c(C)c(Cl)c(O)c1Cl` returns the recorded outcome of this test.
active

----------
Record form. Attribute: growth inhibition. Fill in for each entry.
# test: NCI Yeast Anticancer Drug Screen. Data for the rad18 strain (AID 177)
# measurement_conditions: S. cerevisiae rad18 mutant growth inhibition; at 3.7 µM; stronger effect = higher value
About 79,000 compounds went through this panel and 15% of them were active in at least one assay; those are over-represented in the sample as a whole. Residues, ends and D or L forms follow the SMILES beside them. *: point of attachment. Fmoc = O=C(OCC1c2ccccc2-c2ccccc21)*; Boc = CC(C)(C)OC(=O)*
Answers are plain numbers, in %.

Known results for compounds:
Entry `CCOc1ccc(N)c(S)c1` : reported growth inhibition = ?
0

Can you handle `CCCCCCCCCC(=O)N(CCC)CCC` next?
21

Can you handle O=C1C(CCSc2ccccc2)C(=O)N(c2ccccc2)C1c1ccccc1 (stereo unspecified) next?
-3

Can you handle CCC[CH2][Ge]([CH2]CCC)([CH2]CCC)[O]C(=O)C(O)c1ccccc1 (stereo unspecified) next?
7

Can you handle COc1ccc2cc(C(C)C(=O)N3CCOC3=O)ccc2c1 (stereo unspecified) next?
10

List reported growth inhibition for each of these compounds:
1. Cc1cccc2c(Cl)c3cccc(C)c3nc12
2. c1ccc2c(c1)ccn2CCc1c[nH]c2ccccc12
3. Cc1ccc(S(=O)(=O)Nc2cccc3cccnc23)cc1
4. Cc1c(Cl)c(C)c(Cl)c(O)c1Cl
5. COc1ccccc1/C=C\C(=O)C1COCN1 (stereo unspecified)
6. COC1=CCC23C(=O)C=CC(=O)C2(C1)C(=O)c1ccccc1C3=O (stereo unspecified)

-3
-46
4
-4
5
-20

List reported growth inhibition for each of these compounds:
1. CC1(C2CC2)C(C#N)(C#N)C1(C#N)C#N
2. Cc1cc(Cl)ccc1NC(=O)/C(Cl)=C(/Cl)C(=O)O
3. O=C(C(Cl)=C(N1CCCCC1)N1CCCCC1)C(Cl)Cl
4. CCN(CC)CCNc1ccc2nc(C)n3c4ccc(OC)cc4c(=O)c1c23
5. c1ccc(-c2cc(C3CO3)c3ccccc3n2)cc1 (stereo unspecified)

[9, 0, 1, 41, 11]

List reported growth inhibition for each of these compounds:
1. C[N+](C)([O-])CCCNc1c2ccccc2nc2cccc([N+](=O)[O-])c12
2. Nc1cc(Cl)ccc1Nc1ccccc1
3. CC(C)(C)OC(=O)NCCCCC(NC(=O)C(Cc1c[nH]c2ccccc12)NC(=O)OCC1c2ccccc2-c2ccccc21)C(=O)O (stereo unspecified) (Fmoc-Trp-Lys(Boc)-OH; configuration not given here)
4. CCN1CCC(O)(c2ccc(Oc3ccc(C)cc3)cc2)C(C(=O)c2ccc(Oc3ccc(C)cc3)cc2)C1 (stereo unspecified)
5. O=C(CCCN1CCC(Nc2ccc(F)cc2)(c2nnnn2C2CCCCC2)CC1)c1ccc(F)cc1
6. O=C1c2ccccc2-c2ccc(N=Cc3ccccc3)cc21
7. CNC(=O)OCc1c(COC(=O)NC)c(C)n(-c2ccc(Br)cc2)c1C
8. c1c[nH]c(CN2CCN(Cc3ncc[nH]3)CC2)n1

[96, -39, -2, 5, 0, -8, -12, 64]

List reported growth inhibition for each of these compounds:
1. CC(C)NCCCNc1c2ccccc2nc2cccc([N+](=O)[O-])c12
2. CCC1(O)C(=O)OCc2c1cc1n(c2=O)Cc2cc3c(N)cccc3nc2-1 (stereo unspecified)
3. Cc1c2cc[n+](CCO)cc2c(C)c2c1[nH]c1ccc(O)cc12
4. O=C(O)c1ccc2cc(Cl)c3ccccc3c2c1
5. CS(=O)(=O)O.[Ag]
6. Fc1cc(F)c(F)c(S)c1F

1. 96
2. -37
3. 20
4. 3
5. 100
6. -34

----------
# test: NCI Yeast Anticancer Drug Screen. Data for the mlh1 strain (AID 171);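 also: 0% = growth of vehicle-treated control cultures of the same strain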
# measurement_conditions: S. cerevisiae mlh1 strain growth inhibition; at 100.0 µM; stronger effect = higher value
The panel holds about 79,000 compounds, 15% with a hit somewhere; the sample as a whole holds those more often.
Record form. Attribute: growth inhibition. Fill in for each entry.
One number for each entry, in %.

Known results for compounds:
Entry `CCCCCCCN(CCCCCCC)CC(=O)c1ccc2cc(Cl)c3ccccc3c2c1` : reported growth inhibition = ?
93

Can you handle `CC(C)=CCc1c2c(c(O)c3c(=O)c(-c4ccc(O)c(O)c4)coc13)C=CC(C)(C)O2` next?
86

Can you handle `Nc1ccc2cc(Br)ccc2c1Br` next?
20

Can you handle O=C(NCCCCN1CC2CCCC2C1)C(C1CCCCC1)C1CCCCC1 (centres undefined) next?
99

Can you handle `NC(=O)NC1C(c2ccccc2)=C1c1ccccc1` next?
51

Can you handle `Cc1ccnc2c(O)cccc12` next?
99

Can you handle `CC1=CC(=O)C=CC1=Nc1cc(Cl)c(O)c(Cl)c1` next?
91

Can you handle `COC(=O)/C(C#N)=C\NC(=S)C(N)=S` next?
98

Can you handle `CCN(CC)CCNc1ccc2ncn3c4ccc(O)cc4c(=O)c1c23` next?
10

Can you handle `Nc1cc2c(cc1N)-c1ccccc1C2=O` next?
86

List reported growth inhibition for each of these compounds:
1. CCCCCCCSCC1C(=O)C23C(O)C1CCC2C12COC3(O)C(O)C1C(C)(C)CCC2O (centres undefined)
2. CSc1nc(-c2ccccc2)nc(=[N+]2CCOCC2)s1
3. NC(=S)N1N=C2c3ccccc3CC[C@@H]2[C@@H]1c1ccccc1
4. O=C(Nn1c(-c2ccccc2)nc2ccccc2c1=O)c1ccc(CS)cc1

1. 91
2. 98
3. 88
4. 98

List reported growth inhibition for each of these compounds:
1. S=C1C(=Nc2ccccc2)N(c2ccccc2)/C(=N\c2ccccn2)N1c1ccccc1
2. CCCCCCCCCCCCCCCCCCN(C)C(COC)COP(=O)([O-])OCC[N+](C)(C)C (centres undefined)
3. NC(=S)N/N=C1\c2ccccc2CCC1CCC1(O)CCc2ccccc2C1=O (centres undefined)

1: 96; 2: 98; 3: 81

List reported growth inhibition for each of these compounds:
1. O=C(O)c1ccccc1C(=O)OC1CCc2ccccc2C1 (centres undefined)
2. O=c1c2ccccc2nc(-c2ccc(Cl)cc2)n1O
3. Cc1c2cc[n+](CCO)cc2c(C)c2c1[nH]c1ccc(O)cc12
4. CCC(C)COC(=O)Nc1cccc(Cl)c1 (centres undefined)
5. CCCNC(=O)OCc1c(COC(=O)NCCC)c(-c2ccc(Cl)c(Cl)c2)n2c1CCC2
6. CCOC(=O)C(Cc1c2ccccc2cc2ccccc12)(NC(C)=O)C(=O)OCC
7. O=C(/C=C/c1ccsc1)c1cccs1

1. 42
2. 94
3. 47
4. 99
5. 57
6. 0
7. 96
